A collection of compounds and their measured AC50
system: S. cerevisiae Mot1-301 ts growth rescue, BacTiter-Glo ATP luminescence; assay: restored Mot1-301 yeast growth at 38.5C – whole organism, S. cerevisiae, Mot1-301 ts mutant, luminescence, dose retest, SUMOylation pathway inhibitor project, confirmation (AID 463204);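 also: growth at restrictive 38.5 degrees C of Mot1-301 OY566 strain; actives raise luminescence by restoring growth of the ts mutant at high temperature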
Calls of active or inactive are those of the source.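 The calls were made as follows: active = AC50 no more than ten times the top concentration tested, that is within one log above it; inconclusive = flat curve fit with activity between 30% and 70%, or invalid poor fit; inactive = AC50 beyond ten times the top tested dose.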
measurement-name: AC50

{"compound": "CCOC(=O)c1ccc(NC(=O)c2c(NC(=O)CCC(=O)O)sc3c2CCCCC3)cc1", "assay-value": "> 42 µM (inactive)"}
{"compound": "Cc1c(NC(=O)C(C)Sc2nnc(-c3ccccc3)o2)c(=O)n(-c2ccccc2)n1C (stereo not given)", "assay-value": "> 42 µM (inactive)"}
{"compound": "Cc1ccc(C(=O)NNc2ncnc3c2cnn3C)cc1", "assay-value": "> 42 µM (inactive)"}
{"compound": "Cc1cc(F)ccc1S(=O)(=O)Nc1ccccc1C(=O)Nc1ccc2[nH]c(=O)[nH]c2c1", "assay-value": "> 42 µM (inactive)"}
{"compound": "COC(=O)c1ccc(/C=N/NC(=O)C(=O)NCC2CCCO2)cc1 (stereo not given)", "assay-value": "> 42 µM (inactive)"}
{"compound": "Cc1nn(C)c(Cl)c1CN1CCN(CCC(C)C)C(CCO)C1 (stereo not given)", "assay-value": "> 42 µM (inactive)"}
{"compound": "COc1cc(/C=C(\\NC(=O)c2ccccc2)C(=O)Nc2nccs2)ccc1OC(C)=O", "assay-value": "> 42 µM (inactive)"}
{"compound": "COC(=O)C(NC(C)=O)(Nc1nc2ccc(S(C)(=O)=O)cc2s1)C(F)(F)F (stereo not given)", "assay-value": "> 42 µM (inactive)"}
{"compound": "CCc1ccc(-n2c(Cc3ccccc3)n[nH]c2=S)cc1", "assay-value": "> 42 µM (inactive)"}
{"compound": "CC(NC(=O)OCc1ccccc1)C(=O)N1CC(O)CC1C(=O)O (stereo not given)", "assay-value": "> 21 µM (inactive)"}
